Ref: the emibetuzumab library of Makowski et al. (2022)

B1: VH:VL chains; a variant is named by its letters at X, in order (parent)
chain 1: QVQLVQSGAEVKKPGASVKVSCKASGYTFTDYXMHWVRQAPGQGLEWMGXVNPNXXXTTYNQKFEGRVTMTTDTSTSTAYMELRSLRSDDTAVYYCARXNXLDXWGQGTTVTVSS
chain 2: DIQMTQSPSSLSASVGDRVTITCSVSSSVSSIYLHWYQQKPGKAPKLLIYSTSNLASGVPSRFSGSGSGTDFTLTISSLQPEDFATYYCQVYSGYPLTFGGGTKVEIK

- Variants of: B1
- METHOD NOTES: yeast display scFab, FACS + sequencing
- DETAILS: with MET
This is one part of the list. The hit rate among all sequences tested is not known here.
READOUT NAME: antigen binding call

Below are worked cases with known answers.
[[record]]
mutation_name = "YRGKGSAA"
meas_value = "binds"

[[record]]
mutation_name = "DRGKNDGD"
meas_value = "no binding"

[[record]]
mutation_name = "ARTKGSGY"
meas_value = "no binding"

[[record]]
mutation_name = "STATADWV"
meas_value = "no binding"

[[record]]
mutation_name = "FKGEGSSA"
meas_value = "no binding"


// below: antigen binding call requested for another variant
Name the recorded antigen binding call for DEKEGDAA .
no binding
